The origin of these recorded values is PubChem BioAssay AID488895.

assay_remarks: E. coli Tat export inhibitors, primary screen, MC4100, TorA-mCherry reporter, fluorescence, single point (AID 488895);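 further: exported cargo escapes ClpAP degradation while cytoplasmic cargo is degraded and loses fluorescence; 0% = median of neutral control wells and 100% = median of NaSCN control wells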
test_context: at 10 µM, hits give high values
The whole screen tested about 340,000 compounds, of which about 120 (0.035%) were called active. The sample holds actives, similar compounds and a random draw of the others, so the mix is not that of the screen.

{"compound": "CCC(C)NC(=O)C1c2ccccc2C(=O)N1Cc1ccccc1 (configuration not stated)", "inhibition (%)": -2.59}
{"compound": "O=S1(=O)CCO[C@H]2Cc3ccccc3[C@H]2N1Cc1ccccc1", "inhibition (%)": -48.1}
{"compound": "CCCNC(=O)N1CCC(c2ccc3c(c2)OCO3)CC1", "inhibition (%)": 3.31}
{"compound": "COc1cccc(CCNC(=O)COc2cccc3c2OC(C)(C)C3)c1", "inhibition (%)": -3.07}
{"compound": "NC(=O)C1(N2CCCCC2)CCN(C(=O)c2ccc(C#Cc3ccccc3)o2)CC1", "inhibition (%)": -3.45}
{"compound": "CC1Sc2ccc(C(=O)NCc3ccccc3Cl)cc2NC1=O (configuration not stated)", "inhibition (%)": -5.09}
{"compound": "COCCCC1CCN(C(=O)C2CCC(=O)N(C3CCCCCC3)C2)CC1 (configuration not stated)", "inhibition (%)": 1.02}
{"compound": "COc1ccccc1N(CCOc1ccccc1)S(=O)(=O)c1ccccc1", "inhibition (%)": 10}
{"compound": "CC(C)CN(CC(C)C)C(=O)CN1c2cccc3cccc(c23)S1(=O)=O", "inhibition (%)": 0.144}
{"compound": "O=C1NCCn2nc3ccccc3c21", "inhibition (%)": -31.2}
{"compound": "COCCCNC(=O)C1CC(=O)N(CCc2ccccc2)C1 (configuration not stated)", "inhibition (%)": 4.61}
{"compound": "COc1ccc(NC(=O)c2cc([N+](=O)[O-])ccc2NC(=O)CNC2CCCCC2C)c(OC)c1 (configuration not stated)", "inhibition (%)": 3.4}

====

assay_remarks: E. coli Tat export inhibitors, primary screen, MC4100, TorA-mCherry reporter, fluorescence, single point (AID 488895);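 further: exported cargo escapes ClpAP degradation while cytoplasmic cargo is degraded and loses fluorescence; 0% = median of neutral control wells and 100% = median of NaSCN control wells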
test_context: at 10 µM, hits give high values
Hit rate of the full screen: of about 340,000 compounds, about 120 (0.035%) were called active. The list comes from a sample in which actives are over-represented; it also holds close analogues and randomly drawn compounds.

{"molecule": "COc1ccc(CNC(=O)C(NS(=O)(=O)c2cccc3nsnc23)C(C)C)cc1 (stereo not drawn)", "inhibition / %": -12.3}
{"molecule": "COc1cc(C(=O)N2CCN(C/C=C/c3ccccc3)CC2)cc(OC)c1C", "inhibition / %": 6.19}
{"molecule": "O=C(CN1CCN(S(=O)(=O)c2ccc(F)cc2)CC1)NC1CC1", "inhibition / %": 2.17}
{"molecule": "O=C(c1cc2ccccc2s1)N1CCN(c2ccccn2)CC1", "inhibition / %": -5.47}
{"molecule": "COc1ccccc1NC(=S)N1CCN(c2ccc(F)cc2)CC1", "inhibition / %": 1.21}
{"molecule": "O=C(O)c1ccccc1OCc1ccccc1Cl", "inhibition / %": -2.88}
{"molecule": "COCCCNC(=O)C1CC(=O)N(CCc2ccc(F)cc2)C1 (stereo not drawn)", "inhibition / %": 3.6}
{"molecule": "CCCCCCCCCCCCC(NC(C)=O)(C(=O)OCC)C(=O)OCC", "inhibition / %": 7.11}
{"molecule": "COc1ccc(C2NCCCC2c2ccccc2)cc1 (stereo not drawn)", "inhibition / %": 0.669}
{"molecule": "Cc1ccc(Cl)cc1NC(=O)COC(=O)C1CCCCC1", "inhibition / %": 6.67}
{"molecule": "COc1ccccc1NC(=O)COC(=O)Cc1ccc(S(=O)(=O)N2CCCCC2)s1", "inhibition / %": -5.48}
{"molecule": "N#Cc1nc(N)nc(N(c2ccccc2)c2ccccc2)n1", "inhibition / %": -1.07}
{"molecule": "COc1ccc(-c2nonc2NC(=O)c2oc3ccc(F)cc3c2C)cc1OC", "inhibition / %": -6.3}
{"molecule": "C=C1c2c(Cl)ccc(O)c2C(O)=C2C(=O)[C@]3(O)C(O)=C(C(N)=O)C(=O)[C@@H](N(C)C)[C@@H]3[C@@H](O)C12 (stereo partly drawn)", "inhibition / %": 28.9}
{"molecule": "COC(=O)c1cc(NC(=O)CC2C(=O)NCCN2C(=O)c2ccc(F)cc2)cc(C(=O)OC)c1 (stereo not drawn)", "inhibition / %": -6.39}
{"molecule": "COc1c(N2CCN(C(=S)Nc3ccccc3F)C(C)C2)c(F)cc2c(=O)c(C(=O)O)cn(C3CC3)c12 (stereo not drawn)", "inhibition / %": 91.3}
{"molecule": "COc1cc2c(cc1OC)C(c1ccccc1Br)NC(=O)C2 (stereo not drawn)", "inhibition / %": 4.97}
{"molecule": "CC1CN(C(=S)Nc2ccccc2F)CC(C)O1 (stereo not drawn)", "inhibition / %": 6.69}
